# System: biotinyl-Trp-oxazolone
# Assay Info: self-aminoacylation, catalytic enhancement (BWO) (fold over background); higher = more active; k-Seq, kA / k0A0; sequences stand for … in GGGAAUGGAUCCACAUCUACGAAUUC…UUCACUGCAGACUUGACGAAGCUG
Variants at the floor of the assay were thinned out.
Use 1 as the dividing line for self-aminoacylation, with the line itself on the Criterion met side and lower values as Criterion not met.

• AAGUUCGCUCAUAGUCGCAAG [Fam3.1 aminoacylation ribozyme variant] = Criterion met
• CCACACUUCAGGCAACCGGUC [Fam1B.1 aminoacylation ribozyme variant] = Criterion met
• UUACCUCAAACAAUCGGUCUG [Fam1A.1 aminoacylation ribozyme variant] = Criterion met
• CCACACUUCCAUCAAUCGGUC [Fam1B.1 aminoacylation ribozyme variant] = Criterion not met
• CUACCUCAAAUAAUCGGUCUG [Fam1A.1 aminoacylation ribozyme variant] = Criterion met
• AUGCACCUGGGUCAUCGGGUG [Fam2.2 aminoacylation ribozyme variant] = Criterion met
• AUUCACCUAGAUCAUUGGGUG [Fam2.2 aminoacylation ribozyme variant] = Criterion met
• CUACUUCGAACCAUCGGUCUG [Fam1A.1 aminoacylation ribozyme variant] = Criterion not met
• AUUCACCUAGUUCAUCGCGUG [Fam2.2 aminoacylation ribozyme variant] = Criterion met
• AGGUUUCCUAAUAGUCGCAAG [Fam3.1 aminoacylation ribozyme variant] = Criterion met
• GUUACCCUGGGCAUCGAGUGA [Fam2.1 aminoacylation ribozyme variant] = Criterion met
• AAGUUUGCUAAUAGUGGUAAG [Fam3.1 aminoacylation ribozyme variant] = Criterion not met

* * *

# Tested on: biotinyl-Ile-oxazolone
# Assay Info: self-aminoacylation, catalytic enhancement (BIO) (fold over background); higher = more active; k-Seq, kA / k0A0; sequences stand for … in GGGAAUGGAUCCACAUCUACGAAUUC…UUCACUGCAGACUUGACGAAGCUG
Variants at the floor of the assay were thinned out.
Documented self-aminoacylation across a set of sequences
Measured Property: self-aminoacylation

* AAGUUUGCUAAUAGUAGCGAG [Fam3.1 aminoacylation ribozyme variant] | 1.21
* CUACUUCAAACAAAAGGUCUG [Fam1A.1 aminoacylation ribozyme variant] | 0.822
* AAGUUGGCUAAAAGUCGCAAG [Fam3.1 aminoacylation ribozyme variant] | 2.01
* AAGUUUGCUAAUAGUCCAAAG [Fam3.1 aminoacylation ribozyme variant] | 1.21
* CUACUUCAAACAAACGUUCUG [Fam1A.1 aminoacylation ribozyme variant] | 0.591
* AUUACCCAGGUCAUCGAGUGC [Fam2.1 aminoacylation ribozyme variant] | 0.777
* CCACGUUUCAAGCAAUCGGUC [Fam1B.1 aminoacylation ribozyme variant] | 2.68
* AAGUCUGCUAAUAGUCACAAG [Fam3.1 aminoacylation ribozyme variant] | 1.24
* AAUCACCUAGGUCAUCGGGUG [Fam2.2 aminoacylation ribozyme variant] | 5.67
* AAGUUUGCAAAUUGUCGCAAG [Fam3.1 aminoacylation ribozyme variant] | 1.26
* CGACUUCAAACAAUCGGUCUU [Fam1A.1 aminoacylation ribozyme variant] | 1.64
* AAGUUCGCUAACAGUCGCAAG [Fam3.1 aminoacylation ribozyme variant] | 1.45
* AUUCAGCUUGGUCAUCGGGUG [Fam2.2 aminoacylation ribozyme variant] | 2.75
* AUUCACCCAGGUCCUCGGGUG [Fam2.2 aminoacylation ribozyme variant] | 3.22
* AUUGCCCUGGUCAGCGAGUGA [Fam2.1 aminoacylation ribozyme variant] | 3.29
* CUAGUACAAACAAUCGGUCUG [Fam1A.1 aminoacylation ribozyme variant] | 0.837
* AAUCACCUAGGUCAUCGGGUU [Fam2.2 aminoacylation ribozyme variant] | 4.1
* CUUCUUCAGACAAUCGGUCUG [Fam1A.1 aminoacylation ribozyme variant] | 0.76

* * *

# Test system: biotinyl-Val-oxazolone
# Assay Info: self-aminoacylation, catalytic enhancement (BVO) (fold over background); higher = more active; k-Seq, kA / k0A0; sequences stand for … in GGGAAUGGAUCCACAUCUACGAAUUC…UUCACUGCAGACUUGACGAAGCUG
Fewer inactive variants are shown than the library holds.
Listed sequences paired with reported self-aminoacylation
Measured Property: self-aminoacylation

• GUACUUCAAACACUCGGUCUG [Fam1A.1 aminoacylation ribozyme variant] = 1.3
• AUUCACCUAGGUCAUGGGGUC [Fam2.2 aminoacylation ribozyme variant] = 1.4
• AAUGACCUAGGUCAUCGGGUG [Fam2.2 aminoacylation ribozyme variant] = 3.56
• AGUCACCUAGGUCAUCGGGUC [Fam2.2 aminoacylation ribozyme variant] = 1.7
• CCACACUUCAUGCAAUCGGUU [Fam1B.1 aminoacylation ribozyme variant] = 1.26
• AUUACCCUGGUCAUAGAGUCA [Fam2.1 aminoacylation ribozyme variant] = 0.974
• CCAAACUUUAAGCAAUCGGUC [Fam1B.1 aminoacylation ribozyme variant] = 0.993
• GCACACUUCACGCAAUCGGUC [Fam1B.1 aminoacylation ribozyme variant] = 2.22
• AUUCACCUUCGUCAUCGGGUG [Fam2.2 aminoacylation ribozyme variant] = 2.38
• AUUCACCGAGGUCAUCUGGUG [Fam2.2 aminoacylation ribozyme variant] = 2.69
• AUCCACCUAGGUCAGCGGGUG [Fam2.2 aminoacylation ribozyme variant] = 4.02
• CCGCACUUCAAGCCAUCGGUC [Fam1B.1 aminoacylation ribozyme variant] = 2.26

* * *

# Tested on: biotinyl-Ile-oxazolone
# Assay Info: self-aminoacylation, catalytic enhancement (BIO) (fold over background); higher = more active; k-Seq, kA / k0A0; sequences stand for … in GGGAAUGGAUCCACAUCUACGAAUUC…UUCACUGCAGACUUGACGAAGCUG
Variants at the floor of the assay were thinned out.
Parameter self-aminoacylation: see the listing below.
Measured Property: self-aminoacylation

* AUUCCCCUGGUCAACGAGUGA [Fam2.1 aminoacylation ribozyme variant] | 4.6
* CUACUUCACACAAUCGGUCUA [Fam1A.1 aminoacylation ribozyme variant] | 0.72
* GUUAGCCUGGUCAUCGAGUGA [Fam2.1 aminoacylation ribozyme variant] | 5.11
* AUAACCCUGGUCAACGAGUGA [Fam2.1 aminoacylation ribozyme variant] | 3.32
* AAGUUUGGUAAUAGGCGCAAG [Fam3.1 aminoacylation ribozyme variant] | 0.692
* AUUACCCUGGUCAACGGGUGA [Fam2.1 aminoacylation ribozyme variant] | 4.83
* AGUCACCUAGGUCAUCGGGUG [Fam2.2 aminoacylation ribozyme variant] | 4.81
* AUAACCCUGGUCAUCGAGUCA [Fam2.1 aminoacylation ribozyme variant] | 0.774

* * *

# Test system: biotinyl-Phe-oxazolone
# Assay Info: self-aminoacylation, catalytic enhancement (BFO) (fold over background); higher = more active; k-Seq, kA / k0A0; sequences stand for … in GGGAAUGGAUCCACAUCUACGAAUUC…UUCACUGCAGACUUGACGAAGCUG
Fewer inactive variants are shown than the library holds.
Where self-aminoacylation equals or exceeds 5, the correct label is satisfied; where it does not, the label is not satisfied.

- AUUACCCUAGUCAUCCAGUGA [Fam2.1 aminoacylation ribozyme variant]: not satisfied
- AUCACCCUGGUCAUCGAGUGA [Fam2.1 aminoacylation ribozyme variant]: satisfied
- CCACACUUCAAGUAAUCGGCC [Fam1B.1 aminoacylation ribozyme variant]: not satisfied
- ACGUUUGCCAAUAGUCGCAAG [Fam3.1 aminoacylation ribozyme variant]: satisfied
- CUACUUCAUACAGUCGGUCUG [Fam1A.1 aminoacylation ribozyme variant]: not satisfied
- AUUCACCUACGUCAUCGGGGG [Fam2.2 aminoacylation ribozyme variant]: satisfied
- CUCACCCUGGUCAUCGAGUGA [Fam2.1 aminoacylation ribozyme variant]: satisfied
- AAGAUGGCUAAUAGUCGCAAG [Fam3.1 aminoacylation ribozyme variant]: not satisfied
- AUUGCCCUGGUCAGCGAGUGA [Fam2.1 aminoacylation ribozyme variant]: satisfied
- CUACUUCAACCAAUCGGACUG [Fam1A.1 aminoacylation ribozyme variant]: satisfied
- AUUACCCUGGUCAUCGAGUAC [Fam2.1 aminoacylation ribozyme variant]: satisfied
- AAGUUUGUUAAUAGUCGCAGG [Fam3.1 aminoacylation ribozyme variant]: satisfied
- AUUACCCUGUUCAUCGGGUGA [Fam2.1 aminoacylation ribozyme variant]: satisfied
- AUUACCCUGGCCAUCGUGUGA [Fam2.1 aminoacylation ribozyme variant]: satisfied
- CCACGCAUCAAGCAAUCGGUC [Fam1B.1 aminoacylation ribozyme variant]: not satisfied
- AUUACGCUGGUCCUCGAGUGA [Fam2.1 aminoacylation ribozyme variant]: satisfied
- GUUCACCUAGGUCCUCGGGUG [Fam2.2 aminoacylation ribozyme variant]: satisfied
- AUUACCCUGAUCAUGGAGUGA [Fam2.1 aminoacylation ribozyme variant]: satisfied
- AUUCUCCUAGGUCAUCGGGCG [Fam2.2 aminoacylation ribozyme variant]: satisfied
- AUUCAUCUAGGUCAUCGGGUU [Fam2.2 aminoacylation ribozyme variant]: not satisfied
- AUUCACCUAGGUCGUCGAGUG [Fam2.2 aminoacylation ribozyme variant]: not satisfied

All figures here come from the supplement of paper PMC9233669.
